Values were extracted from PubChem BioAssay AID1671193.

# Assay Notes: GF-AFC viability counterscreen for inhibitors of alpha-synuclein gene (SNCA) expression; note: nearly all actives have a fitted effect of over 30% in size
# Condition Info: HEK-293-SNCA-luc viability, GF-AFC fluorescence, 24 h; series mostly up to 57.1 µM
Among all 150,000 compounds or so, about 180 (0.12%) were called active. Another 6% or so got no clear call; they are omitted. Calls come from the whole dose curve; as a rule, active = well fitted cell-killing curve with a large enough effect; inconclusive = small, poorly fitted or top-dose-only effect, or effect the other way; inactive = flat fitted curve, though single readings scatter. The sample holds actives, similar compounds and a random draw of the others, so the mix is not that of the screen.
Tick one outcome: class 1 (active), class 0 (inactive)

In: How did this test come out for Cc1ccc(C(=O)N2CCCC(c3nc(C4CCOCC4)no3)C2)cn1 (stereo not given) ?
Out: class 0

In: GET /call?item= "CC1=C[C@@H](CNC2CC2)[C@H](C(C)C)C[C@H]1Cc1nnc(-c2ccc(C)cc2)o1" returns the recorded outcome of this test.
Out: class 1

In: Identify the outcome logged in this assay for the compound shown: "COc1cccc(-c2cc(-c3nc(-c4ccc5nc[nH]c5c4)no3)[nH]n2)c1"
Out: class 0

In: What call does the record list for COCCOC1CN(C2CCN(S(=O)(=O)c3cccs3)CC2)C12CCCCC2 (stereo not given) ?
Out: class 0

In: Check the results log: what was the call for COc1ccc2c(c1)OCC(C(=O)NCc1cc3cc(OC)ccc3[nH]1)C2 (stereo not given) ?
Out: class 0

In: Kindly provide the recorded test outcome for the following compound: Cc1cccc(OCC2CCCN(c3ncncn3)C2)c1 (stereo not given)
Out: class 0

In: Any idea what this test logged for "O=c1c2nc(OCc3ccc(-n4cccn4)cc3)ccc2ncn1Cc1ccccc1" ?
Out: class 0

In: What was the test verdict on CCCN(Cc1nccn1C)C(=O)c1ccccc1C1CCNC1 (stereo not given) ?
Out: class 0

In: # outcome recorded in this test, key = "COc1ccc(C(=O)N2CCC3(CC2)N(c2ccccc2)C(=O)CS3(=O)=O)cc1F"
Out: class 0

In: For CN(Cc1ccsc1)C(=O)C1CCCN(C2CCN(C(=O)C3CC3)CC2)C1 (stereo not given) , what call appears in the results of this test?
Out: class 0

----------
# Assay Notes: GF-AFC viability counterscreen for inhibitors of alpha-synuclein gene (SNCA) expression; note: nearly all actives have a fitted effect of over 30% in size
# Condition Info: HEK-293-SNCA-luc viability, GF-AFC fluorescence, 24 h; series mostly up to 57.1 µM
Out of some 150,000 compounds screened, about 180 (0.12%) were called active. Roughly 6% stayed inconclusive and do not appear here. The call rests on the fitted dose curve; in most records, active means well fitted cell-killing curve with a large enough effect; inconclusive means small, poorly fitted or top-dose-only effect, or effect the other way; inactive means flat fitted curve, though single readings scatter. Only a selection was taken, and actives are over-represented in it overall.
# output must be one of TRUE for active, FALSE for inactive

In: For CC1(CCCCc2ccccc2)COc2ccc(C(=O)N3CCNC(=O)C3)cc2N1 (configuration not stated) , which call appears in the assay record?
Out: FALSE

In: Field: outcome | Entry: "CC1=C[C@@H](CNC(C)C)[C@H](C(C)C)C[C@H]1Cc1nnc(-c2ccncc2)o1"
Out: FALSE

In: Give the logged outcome of this assay for the following compound: "COc1ccc(-c2nc(C(C)C)nc3c2CCN([S+](=O)([O-])c2cccc(C(F)(F)F)c2)CC3)cc1"
Out: FALSE

In: Which outcome was assigned to "O=C(O)CCNC(=O)Cn1nc2c(cc1=O)CCCC2" in this test?
Out: FALSE

In: What outcome does the record of this test show for CC(CCc1ccccc1)NC(=O)CN1C(=O)NC(c2ccccc2Cl)C2=C1COC2=O (configuration not stated) ?
Out: FALSE

In: Which outcome was assigned to "COCCC1(NS(C)(=O)=O)CCN(C(=O)c2ccc(OC)nc2OC)CC1" in this test?
Out: FALSE

In: I'd appreciate the recorded outcome for "CN(C)C[C@@H]1CN(Cc2cccnc2)C[C@H]1NC(=O)Cc1cccc(F)c1" from this test.
Out: FALSE

In: Per the records of this test, what outcome belongs to "CCN1CCN(C(=O)c2cn3cc(-c4ccc(C(F)(F)F)cc4)sc3n2)CC1" ?
Out: FALSE

In: // outcome(item) with item = FC(F)(F)c1cccc(C2=NOC3(CCCN(Cc4ccccn4)C3)C2)c1 (configuration not stated)
Out: FALSE

In: How was c1cnc2nc(C3CCN(C4CCCCC4)C3)[nH]c2c1 (configuration not stated) classified in this test?
Out: FALSE

In: Answer briefly: the call reported for COc1cccc(-c2cccc(CN3CCCC3C(=O)NCC(C)C)c2)c1 (configuration not stated) in this assay.
Out: FALSE

In: Hey, what did the test say about O=C(NC1CCN(c2cc(-c3cccs3)[nH]n2)C1)c1ccc(Br)cc1 (configuration not stated) ?
Out: FALSE

In: Field: outcome | Entry: "O=C1NCCCCCN(S(=O)(=O)c2ccc3c(c2)CCC3)[C@H]2CCCC[C@@H]12"
Out: FALSE

In: Hi team, can someone confirm the assay call for O=C1CCC2(C(=O)NCc3cccc(F)c3)CCC=C2N1C1CCCC1 (configuration not stated) ?
Out: FALSE

In: Please state the recorded outcome for this compound: COC(=O)C1=C(C)N=C2SC=C(CC(=O)N3CCCC3)N2C1c1cccc(F)c1 (configuration not stated)
Out: FALSE

In: For "O=C(NC[C@H]1OC[C@@H](NCc2ccccn2)[C@@H]1O)C1CCCC1" , which call appears in the assay record?
Out: FALSE

In: Write down the call the test reported for this compound. Item: O=C(NCC1CC1)c1coc(COc2ccc3c(c2)C(c2cccc(F)c2)N(C(=O)C2CC2)CC3)n1 (configuration not stated)
Out: FALSE

In: # lookup: test call for "O=C(c1ccc2c(c1)OCO2)N1CCC2(CC1)NC(=O)N(c1ccccc1)N2"
Out: FALSE

In: Just curious, what result did "Cc1cccnc1CN1CCN(C(=O)Cn2nnnc2CN2CCCC2)CC1" get here?
Out: FALSE

In: Recorded call for "O=C(c1cccc(O)c1)N1CCNc2cnc(Nc3cccc(F)c3)nc2C1" ?
Out: FALSE

In: Which outcome was entered for the compound "Cc1ccc(F)cc1S(=O)(=O)N1CCC(OC2CCN(Cc3ccccc3)CC2)CC1" in this test?
Out: FALSE

In: Identify the outcome logged in this assay for the compound shown: "CSc1oc(-c2cccs2)nc1S(=O)(=O)c1ccc(Br)cc1"
Out: FALSE

In: Outcome? O=C1C2CN(Cc3ccc4[nH]ccc4c3)CCC2OCCN1Cc1ccccc1F (configuration not stated)
Out: FALSE

In: For "CCCCN(CC#Cc1ccccc1)C(=O)c1cc(=O)n(C)c(=O)n1C" , which call appears in the assay record?
Out: FALSE

In: For this compound, state the assay outcome: "O=C(NCCC1CCN(C(=O)Nc2ccc(F)cc2)CC1)c1ccccn1"
Out: FALSE

In: Please share the test call associated with "CCCCS(=O)(=O)c1oc(-c2cccs2)nc1S(=O)(=O)c1ccccc1" .
Out: TRUE

In: Please share the test call associated with "O=C(Nc1ccc(C(F)(F)F)cc1)C1=NO[C@@H]2CN(CCc3ccccc3)C[C@H]12" .
Out: FALSE

In: Could you check what this test reported for "COc1cccc(-c2cc(C3CCN(C(=O)Nc4ccccc4C)CC3)[nH]n2)c1" ?
Out: FALSE

In: Record request — test call for COc1ccc(C(=O)N2C(C(=O)NCC(C)C)COC23CCN(C(=O)C2CCC2)CC3)cc1 (configuration not stated)
Out: FALSE

In: How was "COc1ccccc1-c1nc(C(=O)NCc2cccs2)n2ccncc12" classified in this test?
Out: FALSE

In: For this compound, state the assay outcome: "COCCN1C(=O)CS(=O)(=O)C12CCN(C(=O)c1ccc(C)s1)CC2"
Out: FALSE

In: Please share the test call associated with "CCc1ccc(NC(=O)Cn2ccn3nc4c(c3c2=O)CCCC4)cc1" .
Out: FALSE

In: Which outcome was assigned to "CN1CCC2(CC1)Cc1ccccc1CN(C(=O)c1cccc(Cl)c1)C2" in this test?
Out: FALSE

In: Hi, sorry to bother you, what did the test record for "O=C(c1ccc(F)cc1)N1CCN(c2cc(-c3ccc(F)cc3)[nH]n2)CC1" ?
Out: FALSE

In: Dear colleague, could you share the recorded outcome for "COc1ccc(S(=O)(=O)N2CCC3(CCC(=O)N(CC4CC4)CC3)CC2)cc1" when you have a moment?
Out: FALSE

In: Could you check what this test reported for Cc1ccc(CN2CCCN(Cc3ccncc3)C(c3ccccc3)CC(=O)NCC2)s1 (configuration not stated) ?
Out: FALSE

In: For this compound, state the assay outcome: OC1CN(Cc2ccccc2)CCN(C2CCN(c3ccccc3F)CC2)C1 (configuration not stated)
Out: FALSE

In: How was "COc1ccc(-c2noc(C(=O)O)c2[C@@H](C)NS(=O)(=O)c2ccccc2)cc1" classified in this test?
Out: FALSE

In: Would you mind telling me which call this test gave CC(C)C(=O)N1CCC2(CC1)OC(=O)N(Cc1ccccc1F)C2(C)c1ccccc1 (configuration not stated) ?
Out: FALSE

In: Per the assay record, what outcome was assigned to O=C1NC2(CCN(C(=O)c3ccccc3)C2)COc2ccccc21 (configuration not stated) ?
Out: FALSE

In: Status in this test for COc1ccccc1CN1Cc2cc(NC(=O)C3CCCC3)ccc2OC(C)C1=O (configuration not stated) ?
Out: FALSE

In: Look up the recorded call for CSCC(=O)N1CCC2(CC1)CC(c1ccccc1)CN(C)C2 (configuration not stated) in this test.
Out: FALSE
